Give T/C for every item shown.
Tested on: L1210 leukemia ip in BDF1 mice, survival T/C
Assay: NCI In Vivo Anticancer Drug Screen. Data for tumor model L1210 Leukemia (intraperitoneal) in B6D2F1 (BDF1) mice
Settings: endpoint: mean survival time; dose: 400.0 mg/kg/injection; schedule: Q04DX002 (ip); vehicle: Klucel (hydroxypropylcellulose) (HPC); higher = longer survival
Inconclusive results and toxic doses are left out.

Prompt line: Name the reported T/C value associated with the compound COC1OC2COC(c3ccccc3)OC2C(NC(C)=O)C1O (stereo not drawn)
Response line: 105 % of control

Prompt line: Name the reported T/C value associated with the compound COc1ccc(NC(=O)NC2CCCCC2)c(Cl)c1
Response line: 94 % of control

Prompt line: Name the reported T/C value associated with the compound NNC(=O)C(Cc1cnc[nH]1)NC(=O)OCc1ccccc1 (stereo not drawn)
Response line: 107 % of control

* * *

Give T/C for every item shown.
Tested on: L1210 leukemia ip in BDF1 mice, survival T/C
Assay: NCI In Vivo Anticancer Drug Screen. Data for tumor model L1210 Leukemia (intraperitoneal) in B6D2F1 (BDF1) mice
Details: endpoint: mean survival time; dose: 200.0 mg/kg/injection; schedule: Q01DX009 (ip); vehicle: Klucel (hydroxypropylcellulose) (HPC); higher = longer survival
Inconclusive results and toxic doses are left out.

Prompt line: Name the reported T/C value associated with the molecule CCCCOC(=O)c1ccc(NC(=O)Nc2ccc(F)c([N+](=O)[O-])c2)cc1
Response line: 95 % of control

Prompt line: Name the reported T/C value associated with the molecule COc1cccc(C(=O)O)c1OS(=O)(=O)c1ccccc1
Response line: 95 % of control

Prompt line: Name the reported T/C value associated with the molecule COc1ccc2[nH]c3c(c2c1)CSc1ccccc1-3
Response line: 104 % of control

Prompt line: Name the reported T/C value associated with the molecule CC(=O)c1cccc(NC(=O)Nc2ccc(CCO)cc2)c1
Response line: 95 % of control

Prompt line: Name the reported T/C value associated with the molecule CCOC(=O)C(Cc1ccc(O)cc1)NP(=O)(OCCCl)OCCCl (stereo not given)
Response line: 98 % of control

Prompt line: Name the reported T/C value associated with the molecule O=c1ccn(Cc2cccc(OCCCc3ccccc3)c2)c(=O)[nH]1
Response line: 102 % of control

Prompt line: Name the reported T/C value associated with the molecule O=C1CC(Sc2ccccc2)C(=O)N1c1ccccc1 (stereo not given)
Response line: 100 % of control

Prompt line: Name the reported T/C value associated with the molecule Oc1ccc2ccc3[nH]cnc3c2c1
Response line: 104 % of control

Prompt line: Name the reported T/C value associated with the molecule O=C1COc2ccc(Cl)cc2N1
Response line: 97 % of control

Prompt line: Name the reported T/C value associated with the molecule CCCCCCC(=O)C(CCCC)(C(=O)OCC)C(=O)OCC
Response line: 104 % of control

Prompt line: Name the reported T/C value associated with the molecule O=C(NC1CCCCC1)N(C1CCCCC1)C1CCCCC1
Response line: 103 % of control

Prompt line: Name the reported T/C value associated with the molecule CN(Cc1ccccc1)C(=O)c1ccc(C(=O)N(C)Cc2ccccc2)cc1
Response line: 108 % of control

Prompt line: Name the reported T/C value associated with the molecule Nc1nc(N)nc(-c2ccccc2)n1
Response line: 111 % of control

Prompt line: Name the reported T/C value associated with the molecule O=S(=O)(O)CNc1cc(Cl)cc(Cl)c1
Response line: 93 % of control

Prompt line: Name the reported T/C value associated with the molecule O=Cc1ccc(OC(=O)Nc2ccc([N+](=O)[O-])cc2)cc1
Response line: 90 % of control

* * *

System: L1210 leukemia ip in BDF1 mice, survival T/C
Assay: NCI In Vivo Anticancer Drug Screen. Data for tumor model L1210 Leukemia (intraperitoneal) in B6D2F1 (BDF1) mice
Details: endpoint: mean survival time; dose: 400.0 mg/kg/injection; schedule: Q04DX003 (ip); vehicle: saline with Tween-80; higher = longer survival
Toxic doses and inconclusive results are not listed.
Give T/C for every item shown.

Prompt line: Name the reported T/C value associated with the compound Cn1c(CO)cc2ccccc21
Response line: 98 % of control

Prompt line: Name the reported T/C value associated with the compound O=C(/C=C/c1ccccc1)NC(=S)Nc1ccccc1F
Response line: 86 % of control

Prompt line: Name the reported T/C value associated with the compound CCN(CC)S(=O)(=O)c1cccc(C(=O)CC(O)(C(F)(F)F)C(F)(F)F)c1
Response line: 108 % of control

Prompt line: Name the reported T/C value associated with the compound CC1=N/C(=C/c2ccccc2)C(=O)O1
Response line: 98 % of control

Prompt line: Name the reported T/C value associated with the compound O=C(Nc1ccccc1C(F)(F)F)Oc1ccc(Cl)cc1Cl
Response line: 86 % of control

Prompt line: Name the reported T/C value associated with the compound O=C1c2cccc([N+](=O)[O-])c2C(=O)C1c1ccccn1 (stereo unspecified)
Response line: 101 % of control

* * *

Give T/C for every item shown.
System: L1210 leukemia ip in BDF1 mice, survival T/C
Experiment: NCI In Vivo Anticancer Drug Screen. Data for tumor model L1210 Leukemia (intraperitoneal) in B6D2F1 (BDF1) mice
Settings: endpoint: mean survival time; dose: 200.0 mg/kg/injection; schedule: Q01DX009 (ip); vehicle: saline with Tween-80; higher = longer survival
Toxic doses and inconclusive results are not listed.

Prompt line: Name the reported T/C value associated with the molecule NC(CC(=O)O)c1nn[nH]n1 (stereo not drawn)
Response line: 98 % of control

Prompt line: Name the reported T/C value associated with the molecule O=C(O)/C=C/C(=O)NCc1ccco1
Response line: 96 % of control

Prompt line: Name the reported T/C value associated with the molecule O=CC(O)C(O)C(OC1OC(CO)C(O)C(O)C1O)C(O)CO (stereo not drawn) (tested in a mixture with another compound)
Response line: 100 % of control

* * *

Test system: L1210 leukemia ip in BDF1 mice, survival T/C
Assay: NCI In Vivo Anticancer Drug Screen. Data for tumor model L1210 Leukemia (intraperitoneal) in B6D2F1 (BDF1) mice
Details: endpoint: mean survival time; dose: 50.0 mg/kg/injection; schedule: Q01DX009 (ip); vehicle: saline with Tween-80; higher = longer survival
Toxic doses and inconclusive results are not listed.
Give T/C for every item shown.

Prompt line: Name the reported T/C value associated with the compound c1ccc([CH2][Pb]([c]2ccccc2)([c]2ccccc2)[c]2ccccc2)cc1
Response line: 94 % of control

Prompt line: Name the reported T/C value associated with the compound ClCc1ccc(CCl)c(Cl)c1Cl
Response line: 97 % of control

Prompt line: Name the reported T/C value associated with the compound Cc1nc2nc(C(F)(F)F)[nH]c2nc1C
Response line: 98 % of control

Prompt line: Name the reported T/C value associated with the compound C1=CC2(CC1)OCCO2
Response line: 106 % of control

Prompt line: Name the reported T/C value associated with the compound CCC(CO)C(C)C (centres undefined)
Response line: 107 % of control

Prompt line: Name the reported T/C value associated with the compound CCOCC(=O)CC(C)(C)C
Response line: 92 % of control

Prompt line: Name the reported T/C value associated with the compound Cc1cc(=O)[nH]c(N/N=C/c2cc(Cl)ccc2O)n1
Response line: 87 % of control

Prompt line: Name the reported T/C value associated with the compound Cc1nc2c(=O)n(C)c(=O)n(C)c2n1C
Response line: 101 % of control

Prompt line: Name the reported T/C value associated with the compound COc1ccc(OC)c(CCN)c1
Response line: 105 % of control

Prompt line: Name the reported T/C value associated with the compound CC(=O)Oc1c(I)cc(I)cc1C(=O)Nc1ccc(Cl)cc1
Response line: 94 % of control

Prompt line: Name the reported T/C value associated with the compound COc1ccc(C(C)C(C)=O)cc1 (centres undefined)
Response line: 95 % of control

Prompt line: Name the reported T/C value associated with the compound COC(=O)CC(=O)C=P(c1ccccc1)(c1ccccc1)c1ccccc1
Response line: 95 % of control

Prompt line: Name the reported T/C value associated with the compound Nc1cccc(NC=O)c1
Response line: 104 % of control

Prompt line: Name the reported T/C value associated with the compound c1cc2c(c(NC3=NCCN3)c1)CCCC2
Response line: 95 % of control

* * *

Test system: L1210 leukemia ip in BDF1 mice, survival T/C
Assay: NCI In Vivo Anticancer Drug Screen. Data for tumor model L1210 Leukemia (intraperitoneal) in B6D2F1 (BDF1) mice
Details: endpoint: mean survival time; dose: 100.0 mg/kg/injection; schedule: Q04DX003 (ip); vehicle: Klucel (hydroxypropylcellulose) (HPC); higher = longer survival
Protocol: The antitumor activity of compounds was measured in mice bearing transplantable tumors. Survival or tumor size were measured and the results are expressed as the measurement made in the treated group (T) divided by the measurement made in the vehicle treated control group (C). The tumor model used in this assay is L1210 Leukemia (intraperitoneal) in B6D2F1 (BDF1) mice
Inconclusive results and toxic doses are left out.
measuredAttribute: T/C

Prompt line: Name the reported T/C value associated with the compound COC1OC2COC(c3ccccc3)OC2C(O)C1NC(=O)c1ccccc1 (stereo not drawn)
Response line: 110 % of control

Prompt line: Name the reported T/C value associated with the compound C1=C(c2ccccc2)CCC1
Response line: 97 % of control

Prompt line: Name the reported T/C value associated with the compound CN(C)c1ccc(/C=C/C=C/C(=O)c2ccccc2)cc1
Response line: 88 % of control
